Target: Group 10 secretory phospholipase A2 (Homo sapiens, UniProt O15496)
Sequence (O15496 whole entry): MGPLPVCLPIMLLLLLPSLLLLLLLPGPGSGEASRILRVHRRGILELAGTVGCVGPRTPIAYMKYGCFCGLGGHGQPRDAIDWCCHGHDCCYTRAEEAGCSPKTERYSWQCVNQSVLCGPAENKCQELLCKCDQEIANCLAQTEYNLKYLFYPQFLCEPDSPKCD
Test: Inhibition of recombinant sPLA2-10 (unknown origin) using 1-palmitoyl-2-oleoyl-sn-glycero-3-phosphocholine as substrate preincubated for 10 mins followed by substrate addition measured after 60 mins by colorimetric method
Each entry below lists one item and its recorded IC50 value.

Mol smiles: C[C@@H](Cc1cccc(-c2cc(Cc3ccccc3)ccc2C(N)=O)c1)C(=O)O
Outcome measure: IC50
Result: 3.8 µM

Mol smiles: NC(=O)c1ccc(Cc2ccccc2)cc1-c1cccc(CCCC(=O)O)c1
Outcome measure: IC50
Result: 5.4 µM

Consider now this further compound.
Query the reported IC50 for Group 10 secretory phospholipase A2 (Homo sapiens, UniProt O15496); item: NC(=O)c1ccc(Cc2ccccc2)cc1
2.2 µM
